B1: OR4K15 (parent)
chain: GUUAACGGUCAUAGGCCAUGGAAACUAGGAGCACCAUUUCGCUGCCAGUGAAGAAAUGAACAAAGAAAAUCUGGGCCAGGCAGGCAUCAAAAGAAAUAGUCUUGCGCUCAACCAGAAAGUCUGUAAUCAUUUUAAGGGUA

Variants of: B1
assaySummary: self-cleavage, relative activity (ratio to wild type); higher = more cleavage; in vitro, sequencing; the parent is a self-cleaving ribozyme
measuredQuantity: self-cleavage

Consider the worked cases shown below.
U87A A92G = 2.61
U103C A140G = 1.38

Hi there! I need self-cleavage for each item below, if you can.
1. U43G A134G
2. A62U G93A

Response given:
0.89
2.2
